Please provide measured IC50 for the entries that follow.
- Assayed target: hGlyT-1b (Homo sapiens, UniProt P48067)
- Sequence (P48067 1-652 isoform P48067-3): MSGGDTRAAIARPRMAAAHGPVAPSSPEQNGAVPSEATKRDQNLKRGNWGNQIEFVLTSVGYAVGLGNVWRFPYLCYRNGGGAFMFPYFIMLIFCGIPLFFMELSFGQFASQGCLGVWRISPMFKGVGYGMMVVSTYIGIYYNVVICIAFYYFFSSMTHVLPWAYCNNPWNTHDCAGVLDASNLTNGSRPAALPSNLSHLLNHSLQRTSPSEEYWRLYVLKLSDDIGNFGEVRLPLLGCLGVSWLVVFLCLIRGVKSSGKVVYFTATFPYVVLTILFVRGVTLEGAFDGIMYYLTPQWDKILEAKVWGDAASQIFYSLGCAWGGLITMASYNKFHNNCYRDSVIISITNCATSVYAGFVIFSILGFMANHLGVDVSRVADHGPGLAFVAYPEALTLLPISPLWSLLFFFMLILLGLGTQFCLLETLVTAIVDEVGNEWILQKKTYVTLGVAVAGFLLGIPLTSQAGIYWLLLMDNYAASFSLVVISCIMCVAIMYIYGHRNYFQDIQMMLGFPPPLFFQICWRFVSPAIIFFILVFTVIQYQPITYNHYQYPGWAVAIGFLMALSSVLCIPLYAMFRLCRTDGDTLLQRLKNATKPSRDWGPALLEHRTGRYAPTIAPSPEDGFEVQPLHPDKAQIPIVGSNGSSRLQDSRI
- Experiment description: Glycine uptake inhibition assay (hGlyT-1b), [3H]-glycine uptake in transfected CHO cells
Numbers only, in µM.

Items follow; give IC50 for each.
1. COc1ccc(S(=O)(=O)N(c2ccccc2)C2CCN([C@@H]3CCCC[C@@]3(O)c3ccccc3)CC2)cc1 [Example 100]
2. COc1ccc(S(=O)(=O)N(c2ccccc2)C2CCN([C@@H]3CCCC[C@@H]3c3ccccc3)CC2)cc1 (racemic)
3. COc1ccc(S(=O)(=O)N(c2cccc(OC)c2)C2CCN([C@@H]3CCCC[C@@]3(O)c3ccc(F)cc3)CC2)cc1 (racemic)
4. COc1ccc(S(=O)(=O)N(c2ccccc2)C2CCN([C@@H]3CCCC[C@@]3(O)c3ccc(F)cc3)CC2)cc1 (racemic)
5. COc1ccc(S(=O)(=O)N(c2ccc(Cl)cc2)C2CCN([C@@H]3CCCC[C@@]3(O)c3ccccc3)CC2)cc1 (racemic)

Marked response:
1. 0.015
2. 0.056
3. 0.096
4. 0.04
5. 0.092

The measured IC50 associated with COc1ccc(S(=O)(=O)N(c2cccc(C(F)(F)F)c2)C2CCN([C@@H]3CCCC[C@@H]3c3ccccc3)CC2)cc1 (racemic) reads 0.068

These data points were gathered from patent US7176316B2.
